Molecular target: IDO1 (Homo sapiens (Human))
Sequence (P14902 whole entry): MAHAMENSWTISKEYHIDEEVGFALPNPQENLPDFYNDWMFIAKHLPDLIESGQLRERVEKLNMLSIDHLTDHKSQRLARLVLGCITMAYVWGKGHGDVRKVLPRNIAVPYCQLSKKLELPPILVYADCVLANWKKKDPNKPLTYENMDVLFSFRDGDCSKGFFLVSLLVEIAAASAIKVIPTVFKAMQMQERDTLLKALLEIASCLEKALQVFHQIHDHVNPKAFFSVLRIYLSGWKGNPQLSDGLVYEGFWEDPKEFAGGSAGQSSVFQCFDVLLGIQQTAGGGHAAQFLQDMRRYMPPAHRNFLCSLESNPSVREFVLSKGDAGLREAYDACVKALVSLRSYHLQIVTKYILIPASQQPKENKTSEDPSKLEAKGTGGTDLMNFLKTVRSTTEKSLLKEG
Assay: IDO1 Cellular Assay in Hela Cells Stimulated with IFNγ
Type: cell-based
Conditions: about 48 hours, read-out: IDO1 HELA Cell Assay, IC50
observation_type: IC50 (µM)

CS(=O)(CCNc1nonc1/C(=N/O)N[C@H]1Cc2ccc(F)cc21)=NC#N (stereo partly shown) [Example 17]: 0.0537
CON=[S@](C)(=O)CCNc1nonc1/C(=N/O)NC1Cc2ccc(F)cc21 (single isomer, unassigned) [Example 90]: 0.0535
CS(=N)(=O)CC(O)CNc1nonc1/C(=N/O)N[C@H]1Cc2ccc(F)cc21 (single isomer, unassigned) [Example 29]: 0.123

(P) C[S@](=N)(=O)C1CC(Nc2nonc2/C(=N\O)N[C@@H]2Cc3ccc(F)cc32)C1 (single isomer, unassigned) [Example 72]
(Q) CS(=N)(=O)CCC(O)CNc1nonc1/C(=N\O)N[C@@H]1Cc2ccc(F)cc21 (single isomer, unassigned) [Example 79]
(R) CS(=N)(=O)CCCNc1nonc1/C(=N/O)N[C@H]1Cc2ccc(F)cc21 (single isomer, unassigned) [Example 24]
Please list these compounds in decreasing order of IC50. State the ranking by listing the labels in the requested order.
Q, P, R
(Q: 0.091 µM, P: 0.0635 µM, R: 0.0399 µM)
